These measurements were taken from ChEMBL document CHEMBL1201862.

# Test system: MDA-N
# Assay Overview: NCI tumour cell line growth inhibition, 48 h
Calls of active or inactive are those of the source. No stated cut-off is given here; in the data, active = GI50 up to about 1.1 µM and inactive = higher.
Parameter: GI50

Example entries and their recorded answers appear below.
Compound	Parameter	Value Reported
CC1OC(OC2C(OC(=O)[C@]34CCC(C)(C)C[C@H]3C3=CC[C@@H]5[C@@]6(C)CC[C@H](OC7OC(CO)C(O)C(O)C7OC7OC(CO)C(O)C(O)C7O)C(C)(C)[C@@H]6CC[C@@]5(C)[C@]3(C)CC4)OCC(O)C2O)C(O)C(OC2OCC(O)C(O)C2O)C1OC1OCC(O)C(OC2OCC(O)C(O)C2O)C1O (some centres not stated)	GI50	2.27 µM (inactive)
N=C(N)NS(=O)(=O)c1ccc(NC(=O)c2cccc3c(NNc4ccc(S(=O)(=O)N=C(N)N)cc4)c4ccccc4nc23)cc1	GI50	91.4 µM (inactive)
COc1cc(C2c3cc4c(cc3OC(N3CCCC3)C2C)OCO4)cc(OC)c1O (configuration not stated)	GI50	2.31 µM (inactive)

Lookup: State the recorded GI50 for this entry: O=C(O)C1CSC2(CCCN(Cc3ccccc3)C2)N1 (configuration not stated)
Found: > 100 µM (inactive)

Lookup: State the recorded GI50 for this entry: "CCC(=O)COc1ccc(NC(NC(=O)C(C(F)(F)F)C(F)(F)F)(C(F)(F)F)C(F)(F)F)cc1"
Found: 28.3 µM (inactive)

Lookup: State the recorded GI50 for this entry: NC(Cc1c[nH]c(I)n1)C(=O)O (configuration not stated)
Found: > 100 µM (inactive)

Lookup: State the recorded GI50 for this entry: "C[C@@]12C(=O)OC(=O)[C@]1(C)[C@H]1CC[C@@H]2O1"
Found: 2.91 µM (inactive)

Lookup: State the recorded GI50 for this entry: "COc1ccc2c(c1)CCCN2S(=O)(=O)c1ccccc1[N+](=O)[O-]"
Found: 3.73 µM (inactive)

Lookup: State the recorded GI50 for this entry: "CCOC(=O)CO/N=C1/C(=C2/C(=O)Nc3ccccc32)Nc2ccccc21"
Found: > 100 µM (inactive)

Lookup: State the recorded GI50 for this entry: COC1CC(O[C@H]2CC[C@@]3(C)[C@@H](CC[C@]4(O)[C@@H]3CC[C@]3(C)[C@@H](C(C)=O)[C@H](OC(=O)CC(C)C)[C@@H](OC(=O)c5ccccc5)[C@@]34O)C2)OC(C)C1OC1CC(OC)C(OC2OC(C)C(O)C(OC)C2O)C(C)O1 (some centres not stated)
Found: > 25 µM (inactive)

Lookup: State the recorded GI50 for this entry: "CCC/C(Cl)=N/OC(=O)Nc1cc(C(F)(F)F)ccc1OC"
Found: 12.1 µM (inactive)

Lookup: State the recorded GI50 for this entry: "C/C(=C\c1ccccn1)c1ccccn1"
Found: > 100 µM (inactive)

###

# Tested on: CAKI-1
# Assay Overview: NCI tumour cell line growth inhibition, 48 h
The source made the active and inactive calls. No stated cut-off is given here; in the data, active = GI50 up to about 1.1 µM and inactive = higher.
Parameter: GI50

Example entries and their recorded answers appear below.
Compound	GI50
O=C1C2=Cc3ccccc3OC2(O)Oc2ccc(O)cc21 (stereo unspecified)	48.4 µM (inactive)
COc1cc(C2c3cc4c(cc3OC(N3CCCC3)C2C)OCO4)cc(OC)c1O (stereo unspecified)	16.1 µM (inactive)
CN1CCCS/C1=C1/SC(=S)N(c2ccccc2)C1=O	> 100 µM (inactive)
COC(=O)c1ccccc1C#CC#Cc1ccccc1C(=O)OC	> 10 µM (inactive)
C=CCOC(=O)c1c(C)[n+]([O-])c2cc(Cl)c(Cl)cc2[n+]1[O-]	19.2 µM (inactive)

Lookup: State the recorded GI50 for this entry: COc1cccc(NC(=O)C(=O)C2C=CCS2(=O)=O)c1 (stereo unspecified)
Found: > 100 µM (inactive)

Lookup: State the recorded GI50 for this entry: "N=C(N)N/N=C/c1c(-c2ccc(Cl)cc2)nc2n1CCS2"
Found: 14.8 µM (inactive)

Lookup: State the recorded GI50 for this entry: "COC(=O)/C(=C(\C)NC(C)=O)c1c(C(=O)OC)[nH]c2ccccc12"
Found: > 100 µM (inactive)

Lookup: State the recorded GI50 for this entry: "N/C(=N\Nc1ccc(S(N)(=O)=O)cc1)c1cnccn1"
Found: > 100 µM (inactive)

Lookup: State the recorded GI50 for this entry: CCC1=CC2CN3CCc4c([nH]c5ccccc45)C(C(=O)OC)(C2)C13 (stereo unspecified)
Found: 20.8 µM (inactive)

Lookup: State the recorded GI50 for this entry: "[N-]=[N+]=N/C1=C/CCCCC(=O)C1"
Found: > 100 µM (inactive)
